Values compiled from PubChem BioAssay (NCI).

- Test system: A498 renal
- Experiment: NCI-60 one-dose screen, 48 h (100 = growth as untreated, 0 = no growth, -100 = all killed)
- Condition Notes: 10 µM unless noted
- Protocol: Growth inhibition of the A498 human tumor cell line is measured as a screen for anti-cancer activity. Cells are grown in 96 well plates and exposed to the test compound for 48 hours. Compounds are tested at a single concentration, which is 10^-5 M for most compounds. The reported endpoint is percent growth (GI% or GIPRCNT), where numbers from 0 - 100% represent growth inhibition, and numbers from -100% - 0 represent cell death. For example, a value of 40 represents 60% growth inhibition. […]
Compounds without any hit were thinned out: in the full panel of roughly 83,000, 20% have a hit.
Property Label: growth (%)
State the answer as a number, implicitly in %.

| Structure Smiles String | Unit Info | growth |
| --- | --- | --- |
| CCOC(=O)c1sc(NC(=O)COc2cccc(/C=C3\Cc4ccc(Cl)cc4C3=O)c2)nc1C | % | 133 |
| O=CNc1ccc2c(c1)Cc1cc([N+](=O)[O-])ccc1-2 | % | 39.2 |
| CCSc1nc(-c2cccs2)n2nc(-c3ccco3)cc2n1 | % | 94.4 |

**Q:** Using the record for O=C(Nc1ccc(Cl)cc1)Nc1nc2ccc(OC(F)(F)F)cc2o1 , report its growth.
**A:** 119

**Q:** How about this compound: Cc1sc2nc(NCc3ccccc3)[nH]c(=O)c2c1C
**A:** 48.9

**Q:** How about this compound: O=c1ncc(-c2ccc(C(F)(F)F)cc2)c(NC2CCCCCC2)[nH]1
**A:** 84.4
